B1: Twister Ribozyme (parent)
chain: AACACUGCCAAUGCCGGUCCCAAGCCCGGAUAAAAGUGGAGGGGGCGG

# Variants of: B1
# TEST_PROTOCOL: self-cleavage, relative activity (ratio to wild type); higher = more cleavage; co-transcriptional
Assign a class from recorded self-cleavage; defined classes: bottom end = under 0.1, midrange = from 0.1 up to 0.3, top end = 0.3 and over

{"columns": ["CHANGE", "CLASS_LABEL"],
 "data": [
  ["A4G C9G", "top end"],
  ["G17U G45U", "midrange"],
  ["A40U C46A", "midrange"],
  ["C14U U31A", "top end"],
  ["A1C G13C", "midrange"],
  ["G29A G44C", "top end"],
  ["G7C G47A", "bottom end"],
  ["G24U U31G", "midrange"],
  ["A10C C26A", "top end"],
  ["G24U G44U", "bottom end"]
]}

Ask: Sort G7C C14G into one of the categories.
Reply: bottom end

Ask: Into which bin does this variant go? G44A C46U
Reply: top end

Ask: Tag the class for C21A G36C
Reply: midrange

Ask: Entry A2C U18C belongs to which category?
Reply: bottom end

Ask: Looking at A32U G48A , which class would you pick?
Reply: top end

Ask: Could you place G43C G48C in its proper category? Many thanks.
Reply: midrange

Ask: Please let me know in which category the item G16C U18G belongs.
Reply: midrange

Ask: Hello team, could you let me know which band the following variant falls into: C14U G24A
Reply: midrange

Ask: Using the reported self-cleavage, which band applies to U6C C21A ?
Reply: bottom end

Ask: Bin? A2U G29A
Reply: top end

Data credit: the RNAGym collection of RNA variant scans (doi:10.7554/elife.80360)
